Hello, the source for this data is patent US8134015B2, in case you need it.

Biological target: rat NaPi-2b (Rattus norvegicus, UniProt Q9JJ09)
Construct: expressed in transfected cells; host or cells: Xenopus oocytes injected with cRNA
Sequence (Q9JJ09 1-695): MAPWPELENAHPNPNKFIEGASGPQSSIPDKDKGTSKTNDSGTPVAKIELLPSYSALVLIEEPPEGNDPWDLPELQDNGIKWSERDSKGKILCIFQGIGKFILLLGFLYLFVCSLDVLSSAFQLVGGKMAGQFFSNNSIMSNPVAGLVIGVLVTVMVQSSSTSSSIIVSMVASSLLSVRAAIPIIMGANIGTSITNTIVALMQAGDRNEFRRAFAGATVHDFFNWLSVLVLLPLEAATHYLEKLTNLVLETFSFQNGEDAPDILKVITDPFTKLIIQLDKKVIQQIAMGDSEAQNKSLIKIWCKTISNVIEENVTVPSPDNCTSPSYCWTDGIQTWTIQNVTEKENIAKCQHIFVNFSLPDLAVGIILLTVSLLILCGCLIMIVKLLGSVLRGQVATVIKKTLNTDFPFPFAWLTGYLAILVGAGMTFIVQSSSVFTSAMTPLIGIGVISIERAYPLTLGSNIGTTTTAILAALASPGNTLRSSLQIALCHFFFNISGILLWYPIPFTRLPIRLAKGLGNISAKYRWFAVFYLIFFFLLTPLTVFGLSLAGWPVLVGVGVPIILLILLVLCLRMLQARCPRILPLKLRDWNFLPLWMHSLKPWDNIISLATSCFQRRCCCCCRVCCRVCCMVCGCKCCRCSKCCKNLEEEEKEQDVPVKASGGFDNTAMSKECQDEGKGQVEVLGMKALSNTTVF
Assay: Sodium-dependent phosphate uptake of Xenopus oocytes which expressed NaPi-2b (32P)
Type: cell-based
Details: phosphate uptake, oocytes expressing rat NaPi-2b; 300 μM, determined from inhibition curve
Experimental: Pharmacological Test Example 1 Experiment of Sodium-Dependent Phosphate Uptake of Xenopus oocytes which Expressed NaPi-2b Degenerate primers were prepared from sequences of mouse NaPi-2b disclosed in Hilfiker H. et al., Pro Natl Acad Sci USA, 95 (24): 14564-14569, […] and sequences of human and rat NaPi-2a disclosed in Magagnin S. et al., Proc Natl Aca Sci USA, 90 (13): 5979-5983, 1993. RNA was extracted from the rat small intestine using ISOGEN; manufactured by NIPPON GENE CO., LTD (Japan). […]

>  <compound>
CCOCCN(CCOCC)Cc1ccc(C(=O)Nc2ccc(Br)cc2C(=O)N/N=C/c2ccc(OC)cc2)cc1

>  <readout.unit>
%

>  <inhibition at 300 µM>
58.9

$$$$
>  <compound>
COc1cccc(/C=N/NC(=O)c2cc(Br)ccc2NC(=O)c2ccc(CN(C)CC(O)c3ccc(O)cc3)cc2)c1 (centres unmarked)

>  <readout.unit>
%

>  <inhibition at 300 µM>
67.7

$$$$
>  <compound>
CCN(CC)CCN(C)Cc1cccc(C(=O)Nc2sccc2C(=O)N/N=C/c2ccc(C)cc2)c1

>  <readout.unit>
%

>  <inhibition at 300 µM>
82.3

$$$$
>  <compound>
Cc1ccc(/C=N/NC(=O)c2scc(C)c2NC(=O)c2cccc(CSc3nc[nH]n3)c2)cc1C

>  <readout.unit>
%

>  <inhibition at 300 µM>
50.1

$$$$
>  <compound>
O=C(Nc1ccc(Cl)cc1C(=O)N/N=C/c1cccc(F)c1)c1cnc2ccccc2n1

>  <readout.unit>
%

>  <inhibition at 300 µM>
34.2

$$$$
>  <compound>
COc1ccc(/C=N/NC(=O)c2cc(Br)sc2NC(=O)c2cccc(CN(C)C)c2)cc1

>  <readout.unit>
%

>  <inhibition at 300 µM>
40.2

$$$$
>  <compound>
Cc1ccc(/C=N/NC(=O)c2scc(C)c2NC(=O)c2cccc(CSCCCO)c2)cc1C

>  <readout.unit>
%

>  <inhibition at 300 µM>
38.9

$$$$
>  <compound>
CCN(CC)CCN(C)Cc1cccc(C(=O)Nc2c(C)csc2C(=O)N/N=C/c2cccc(F)c2)c1

>  <readout.unit>
%

>  <inhibition at 300 µM>
81

$$$$
>  <compound>
Cc1ccc(/C=N/NC(=O)c2cc(Br)ccc2NC(=O)c2ccc(CN3CCC(CCO)CC3)cc2)cc1

>  <readout.unit>
%

>  <inhibition at 300 µM>
50.9

$$$$
>  <compound>
COc1ccc(/C=N/NC(=O)c2cc(Br)ccc2NC(=O)c2ccc(CNC(CN3CCOCC3)c3ccccc3)cc2)cc1 (centres unmarked)

>  <readout.unit>
%

>  <inhibition at 300 µM>
56.5

$$$$
>  <compound>
CCN(CC)CCN(C)Cc1cccc(C(=O)Nc2ccc(Cl)cc2C(=O)N/N=C/c2ccc(OCC(=O)O)cc2)c1

>  <readout.unit>
%

>  <inhibition at 300 µM>
32.1

$$$$
>  <compound>
CCSCCNCc1ccc(C(=O)Nc2ccc(Br)cc2C(=O)N/N=C/c2ccc(F)cc2)cc1

>  <readout.unit>
%

>  <inhibition at 300 µM>
81.8

$$$$
>  <compound>
CCN(CC)CCNCc1cccc(C(=O)Nc2c(C)csc2C(=O)N/N=C/c2ccc(Cl)c(C(F)(F)F)c2)c1

>  <readout.unit>
%

>  <inhibition at 300 µM>
88.4

$$$$
>  <compound>
Cc1ccc(/C=N/NC(=O)c2c(C)csc2NC(=O)c2cccc(CSCCS(=O)(=O)O)c2)cc1C

>  <readout.unit>
%

>  <inhibition at 300 µM>
51.2

$$$$
>  <compound>
Cc1ccc(/C=N/NC(=O)c2scc(C)c2NC(=O)c2cccc(CN3CCN(CCO)CC3)c2)cc1C

>  <readout.unit>
%

>  <inhibition at 300 µM>
76

$$$$
>  <compound>
Cc1cccc(/C=N/NC(=O)c2cc(Cl)ccc2NC(=O)c2cccc(CN(C)CCCCCCN(C)Cc3cccc(C(=O)Nc4ccc(Cl)cc4C(=O)N/N=C/c4cccc(C)c4)c3)c2)c1

>  <readout.unit>
%

>  <inhibition at 300 µM>
44.7

$$$$
>  <compound>
CCN(CC)Cc1cccc(C(=O)Nc2ccsc2C(=O)N/N=C/c2cccc(F)c2)c1

>  <readout.unit>
%

>  <inhibition at 300 µM>
42.1

$$$$

* * *

Molecular target: rat NaPi-2b (Rattus norvegicus)
Sequence (Q9JJ09 1-695): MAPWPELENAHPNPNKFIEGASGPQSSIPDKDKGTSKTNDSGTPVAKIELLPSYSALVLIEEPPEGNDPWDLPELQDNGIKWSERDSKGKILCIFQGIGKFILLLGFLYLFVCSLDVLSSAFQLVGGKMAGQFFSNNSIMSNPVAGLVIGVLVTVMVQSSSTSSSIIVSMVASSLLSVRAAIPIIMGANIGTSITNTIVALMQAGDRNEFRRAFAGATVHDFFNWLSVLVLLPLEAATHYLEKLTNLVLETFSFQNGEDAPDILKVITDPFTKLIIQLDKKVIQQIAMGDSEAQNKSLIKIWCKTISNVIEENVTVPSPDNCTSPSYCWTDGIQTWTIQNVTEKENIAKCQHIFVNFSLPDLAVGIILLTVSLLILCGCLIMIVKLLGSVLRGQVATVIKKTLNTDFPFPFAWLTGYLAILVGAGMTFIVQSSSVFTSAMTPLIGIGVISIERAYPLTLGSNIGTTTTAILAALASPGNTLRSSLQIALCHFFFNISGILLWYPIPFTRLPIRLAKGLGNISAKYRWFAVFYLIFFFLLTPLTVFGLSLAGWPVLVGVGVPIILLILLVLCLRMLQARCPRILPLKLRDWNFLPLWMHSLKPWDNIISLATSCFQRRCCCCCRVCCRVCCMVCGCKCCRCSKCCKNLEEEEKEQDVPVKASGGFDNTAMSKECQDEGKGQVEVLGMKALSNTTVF
Test: Sodium-dependent phosphate uptake of Xenopus oocytes which expressed NaPi-2b (32P)
Details: Xenopus oocytes expressing rat NaPi-2b, 32P radioactive phosphorus; read-out: IC50 (phosphate uptake inhibitory activity)

>  <smiles.str>
CCN1CC(NCc2ccc(C(=O)Nc3ccc(Br)cc3C(=O)N/N=C/c3ccc(Cl)c(C(F)(F)F)c3)cc2)CN1CC

>  <IC50>
< 3 µM

$$$$
>  <smiles.str>
CCN(CCO)Cc1cccc(C(=O)Nc2ccc(Cl)cc2C(=O)N/N=C/c2ccc(C)cc2)c1

>  <IC50>
< 3 µM

$$$$
>  <smiles.str>
CCN(CCO)Cc1ccc(C(=O)Nc2ccc(Cl)cc2C(=O)N/N=C/c2ccc(Cl)c(C(F)(F)F)c2)cc1

>  <IC50>
< 3 µM

$$$$
>  <smiles.str>
CN(C)CCn1nnnc1SCc1cccc(C(=O)Nc2ccc(Cl)cc2C(=O)N/N=C/c2cccc(F)c2)c1

>  <IC50>
< 3 µM

$$$$
>  <smiles.str>
O=C(Nc1ccc(N2CCCCC2)cc1C(=O)N/N=C/c1cccc(F)c1)c1cccc(CN2CCc3nc4ncccc4cc3C2)c1

>  <IC50>
< 0.3 µM

$$$$

* * *

Biological target: rat NaPi-2b (Rattus norvegicus, UniProt Q9JJ09)
Assay: Sodium-dependent phosphate uptake of Xenopus oocytes which expressed NaPi-2b (32P)
Conditions: Xenopus oocytes expressing rat NaPi-2b, 32P radioactive phosphorus; read-out: IC50 (phosphate uptake inhibitory activity)
Property: IC50; scope: individual compounds

>  <compound>
COc1ccc(/C=N/NC(=O)c2c(NC(=O)c3cccc(CN(CC(C)O)CC(C)O)c3)sc3c2CCCC3)cc1 (stereo not drawn) [Compound 632]

>  <IC50>
< 1 µM

$$$$
>  <compound>
Cc1ccc(/C=N/NC(=O)c2ccsc2NC(=O)c2cccc(CSCCCO)c2)cc1C [Compound 658]

>  <IC50>
< 3 µM

$$$$
>  <compound>
Cc1ccc(/C=N/NC(=O)c2cc(Br)ccc2NC(=O)c2cccc(C[S+]([O-])CCO)c2)cc1 (stereo not drawn) [Compound 677]

>  <IC50>
< 3 µM

$$$$
